- assay details: basal S. cerevisiae growth modulation, no modifier, primary screen, OD600, strain BY4716, 24 h, basal condition (AID 1173)
- protocol conditions: OD600, 24 h, higher = more signal, called active from +8 up or from −8 down
Use 0.6 as the dividing line for z-score, with the line itself on the Condition met side and lower values as Condition not met.

Record excerpt, results attached:
{"structure smiles string": "COCCOC(=O)N1C(=O)[C@@]2(c3ccccc31)[C@H](c1ccc(O)cc1)N1[C@H](c3ccccc3)[C@H](c3ccccc3)OC(=O)[C@H]1[C@@H]2C(=O)NC[C@H](O)c1ccccc1", "group": "Condition met"}
{"structure smiles string": "COC(=O)[C@@]1(Cc2ccc(F)cc2)[C@H]2c3cc(C(=O)N4CCCC4)n(Cc4ccc(C)o4)c3C[C@H]2CN1C(=O)c1ccccc1", "group": "Condition met"}
{"structure smiles string": "O=C1c2ccccc2[C@@]2(Cc3ccccc3N(CC(F)(F)F)C2=O)[C@H](c2ccc(CO)cc2)N1Cc1ccccc1Cl", "group": "Condition not met"}

q: For this compound, is measured z-score 0.6 or higher? CCc1oc(CC[C@@H](CO)NC(=O)NCCn2cc(C3(O)CCCCC3)nn2)c(C(=O)OC)c1C(=O)OC
a: Condition not met

q: And the next one, COc1ccc(CCNC(=O)[C@@]2(C)c3ccccc3C(=O)N(Cc3cc(F)cc(C(F)(F)F)c3)[C@H]2c2ccc(CO)cc2)cc1 ?
a: Condition not met

q: And the next one, C=C(CCCC)C(=O)CC[C@H](OC(=O)c1cccnc1)c1ccccc1OCCO ?
a: Condition not met

q: And the next one, COC(=O)[C@@]1(Cc2ccc(F)cc2)[C@H]2c3cc(C(=O)N(C)C)n(Cc4ccc(S(C)(=O)=O)cc4)c3C[C@H]2CN1C(=O)c1ccccc1 ?
a: Condition not met

---

Property: z-score; scope: individual compounds
- assay details: Plasmodium falciparum growth inhibition, primary screen, strain 3D7, DAPI fluorescence, 100 nL (AID 1184);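 note: parasites grown inside human red blood cells in medium with human serum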
- protocol conditions: P. falciparum 3D7 growth, 3 d, higher = more signal
Form field (numeric): enter value without unit.

q: Sample CC(C)[C@@H](CO)NC(=O)[C@H]1[C@@H](c2ccccc2)N(c2ccccc2)O[C@@H]1C — what was its z-score?
a: 0.484

---

- Tested on: Lefty1
- assay details: Lefty1 binders on small-molecule microarrays, primary screen, biochemical, small-molecule microarray, 635/667 nm fluorescence (AID 1139)
- protocol conditions: small-molecule microarray binding, fluorescence 635/667; higher = more signal
readout label: composite z-score
Form field (numeric): enter value without unit.

Guide cases for composite z-score, answers given:
{"compound": "COCCOC(=O)N1C(=O)[C@@]2(c3cc(C#CC4=CCCCC4)ccc31)[C@H](C(N)=O)[C@H]1C(=O)O[C@H](c3ccccc3)[C@H](c3ccccc3)N1[C@@H]2c1ccc(OCCO)cc1", "composite z-score": 0.517}
{"compound": "O=C1O[C@H](c2ccccc2)[C@H](c2ccccc2)N2[C@H]1[C@@H](C(=O)Nc1nc3ccccc3s1)[C@]1(C(=O)Nc3ccc(C#CCCO)cc31)[C@H]2c1ccc(OCCO)cc1", "composite z-score": 1.16}
{"compound": "O=C(C1N=C(c2ccc(OCCCO)cc2)N(c2ccccc2)O1)N1CCOCC1 (centres undefined)", "composite z-score": 0.842}

q: Sample COC(=O)[C@@]1(Cc2ccc(F)cc2)[C@H]2c3cc(C(=O)N(C)C)n(Cc4ccc(S(C)(=O)=O)cc4)c3C[C@H]2CN1C(=O)c1ccccc1 — what was its composite z-score?
a: -0.224

q: And the next one, COCCCN1C(=O)[C@@]2(Cc3ccccc31)c1ccccc1C(=O)N(Cc1ccccc1C(F)(F)F)[C@H]2c1ccc(CO)cc1 ?
a: 0.469

q: And the next one, NC(=O)[C@@H]1[C@H]2C(=O)O[C@H](c3ccccc3)[C@H](c3ccccc3)N2[C@H](c2ccc(O)cc2)[C@@]12C(=O)Nc1ccc(C#CC3(O)CCCCCC3)cc12 ?
a: -0.502

q: And the next one, CO[C@H]1O[C@H](CO)[C@@H](OC(=O)Nc2ccc(Br)cc2)[C@H](OC(=O)c2cc3ccccc3[nH]2)[C@H]1OC(=O)c1cc2ccccc2[nH]1 ?
a: 0.311

q: And the next one, CCCC=C(CCC)[C@@H](NC(=O)Oc1ccc(F)cc1)c1ccc(C(=O)OC)cc1 ?
a: -0.186

---

Property: z-score; scope: individual compounds
- assay details: PSAC antagonists in infected red cells, primary screen, cell-based, P. falciparum Indochina, OD700, 1 h (AID 1154)
- protocol conditions: P. falciparum Indochina infected RBC osmotic lysis, higher = more signal, called active from +8 up or from −8 down
Form field (numeric): enter value without unit.

Guide cases for z-score, answers given:
{"compound": "Cc1ccc(C(C)CC(O)C2C=CC3C(=O)N(C)C(=O)C3N2NC(=O)OC(C)(C)C)o1 (stereo not drawn)", "readout label": "z-score", "reported": -0.205}
{"compound": "CN1C(=O)C2C=CC(C(O)c3ccc(-c4ccccc4)s3)N(N(c3ccccc3)c3ccccc3)C2C1=O (stereo not drawn)", "readout label": "z-score", "reported": 3.38}
{"compound": "COc1ccc(C(O)C2C=CC3C(=O)NC(=O)C3N2Nc2ccccn2)c2ccccc12 (stereo not drawn)", "readout label": "z-score", "reported": 0.496}
{"compound": "COc1cc2c(cc1O)C(C1CC1)N(Cc1cc3c(cc1Br)OCO3)CC2 (stereo not drawn)", "readout label": "z-score", "reported": 9.09}
{"compound": "CCOC(=O)C[C@H]1[C@H](OC(=O)c2ccc(C(=O)c3ccccc3)cc2)[C@@H](NC(=O)c2ccc(-c3ccccc3)cc2)c2cc(OCCCO)ccc2N1C(=O)c1ccccc1", "readout label": "z-score", "reported": 0.358}
{"compound": "COc1ccc(C(O)C2C=CC3C(=O)NC(=O)C3N2Nc2ccccn2)cc1 (stereo not drawn)", "readout label": "z-score", "reported": 0.539}

q: Sample C=CCOC(=O)[C@H]1[C@@H]2C(=O)O[C@@H](c3ccccc3)[C@@H](c3ccccc3)N2[C@@H](c2ccc(OCCOC(=O)[C@H]3C[C@H]4C(=O)N[C@@H](CC(C)C)C(=O)N4[C@H]3c3ccc(O)cc3)cc2)[C@]12C(=O)Nc1ccc(I)cc12 — what was its z-score?
a: -0.414

q: And the next one, CCCCN1CC=CC23O[C@@H]4/C=C\CCC(C)OC(=O)C4[C@H]2C(=O)N(CCCCCO)[C@@H]3C1=O (stereo partly drawn) ?
a: 1.03

---

- System: glycogen synthase kinase-3 (GSK3A per assay name; protocol says GSK3B)
- assay details: GSK3 binders on small-molecule microarrays, primary screen, biochemical, small-molecule microarray, 635 nm fluorescence, GSK3A (AID 1103); note: the record names both GSK3A and GSK3B
- protocol conditions: small-molecule microarray binding, fluorescence 635 nm; higher = more signal
Property: composite z-score; scope: individual compounds
Form field (numeric): enter value without unit.

Guide cases for composite z-score, answers given:
{"compound": "COc1ccc([C@H]2OC[C@@H]3CC4(CC=CC4)C(=O)N32)cc1", "composite z-score": 0.784}
{"compound": "C=C(C)C1C(=C)CN([C@H](CO)c2ccccc2)C1=O (some centres undefined)", "composite z-score": -0.599}
{"compound": "CC(C)N1C(=O)c2ccccc2[C@](C)(C(=O)NCc2ccccc2)[C@@H]1c1ccc(CO)cc1", "composite z-score": -0.329}

q: Sample COCCOC(=O)N1C(=O)[C@@]2(c3cc(C#CC4=CCCCC4)ccc31)[C@H](C(=O)Nc1nc3ccccc3s1)[C@H]1C(=O)O[C@H](c3ccccc3)[C@H](c3ccccc3)N1[C@@H]2c1ccc(OCCO)cc1 — what was its composite z-score?
a: 1.21

---

- assay details: HepG2 liver cancer cell viability effects, profiling panel, resazurin fluorescence, 24 h, PK04 Diversity Set (AID 1172); note: test concentration not given here
- protocol conditions: higher = more signal
Property: z-score; scope: individual compounds
Form field (numeric): enter value without unit.

Guide cases for z-score, answers given:
{"compound": "O=C1O[C@H](c2ccccc2)[C@H](c2ccccc2)N2[C@H]1[C@@H](C(=O)NC[C@H](O)c1ccccc1)[C@]1(C(=O)Nc3ccccc31)[C@H]2c1ccc(OCCO)cc1", "readout label": "z-score", "reported": 0.293}
{"compound": "O=C1C2C=CC(C(O)C(c3ccccc3)c3ccccc3)N(n3cnnc3)C2C(=O)N1Cc1ccccc1 (stereo not drawn)", "readout label": "z-score", "reported": 0.264}

We now examine a further compound.
q: Sample C=CCOC(=O)[C@H]1[C@@H]2C(=O)O[C@@H](c3ccccc3)[C@@H](c3ccccc3)N2[C@@H](c2ccc(OCCOC(=O)[C@@H]3C[C@@H]4C(=O)N[C@@H](CCCCN(C)C)C(=O)N4[C@@H]3c3ccc(O)cc3)cc2)[C@]12C(=O)Nc1ccc(I)cc12 — what was its z-score?
a: -0.513
